Test system: PPARg:RXRa IVT, anti-PPARg (NR concentration 270 nM, RXRa partner concentration 90 nM)
Procedure summary: PBM binding z-score (relative to random genomic background probes); higher = stronger binding; sequences stand for … in GC…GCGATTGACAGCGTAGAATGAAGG
Kindly supply the reported PBM binding z-score values for the records listed here.
Numbers only.

INSERT INTO measurements (sequence_code, test_system, measured_value) VALUES
  ('TCTTGTAGATCAACAGGAGGTTAAGTAAGATCGA', 'PPARg:RXRa IVT, anti-PPARg (NR concentration 270 nM, RXRa partner concentration 90 nM)', 0.854),
  ('TAGGCTAGGTCAGATCGGGCCAGTATACGCTATA', 'PPARg:RXRa IVT, anti-PPARg (NR concentration 270 nM, RXRa partner concentration 90 nM)', 1.39),
  ('GCATATAGGTAATACCAGGTGAAAGTCCGATTGT', 'PPARg:RXRa IVT, anti-PPARg (NR concentration 270 nM, RXRa partner concentration 90 nM)', 3.4),
  ('CCTACTGTGCCAAAAAGGTCATTGATGCCGATAA', 'PPARg:RXRa IVT, anti-PPARg (NR concentration 270 nM, RXRa partner concentration 90 nM)', 3.57),
  ('GCTGCTAGGTCAGGTTGGCCAGCTAACGGGTACG', 'PPARg:RXRa IVT, anti-PPARg (NR concentration 270 nM, RXRa partner concentration 90 nM)', 2.24),
  ('TAGCCTAGGTCATTGGGACAGTATAGTACGCATC', 'PPARg:RXRa IVT, anti-PPARg (NR concentration 270 nM, RXRa partner concentration 90 nM)', 3.8),
  ('ATACCAAGGTGATCGTGAGGCCGTTGATACTAAC', 'PPARg:RXRa IVT, anti-PPARg (NR concentration 270 nM, RXRa partner concentration 90 nM)', 1.06),
  ('TAGCCTAGGTCAGATCTGGCCAGTATACGCTATA', 'PPARg:RXRa IVT, anti-PPARg (NR concentration 270 nM, RXRa partner concentration 90 nM)', 1.44),
  ('CGAACTAGGTCATCCAGTACAGTGAATACATTGA', 'PPARg:RXRa IVT, anti-PPARg (NR concentration 270 nM, RXRa partner concentration 90 nM)', 8.35),
  ('TAGCCTAGGTCATTCAGGGGCCGGTATAGAAAGC', 'PPARg:RXRa IVT, anti-PPARg (NR concentration 270 nM, RXRa partner concentration 90 nM)', 2.62);

Report PBM binding z-score for every entry below.
1. TGTCGAAGTTCAAAGGTAACGTAAGTATCCACAC
2. TCATATAGGTAAAGGTGAAAGTAGAACGATATGA
3. TCTAGTTGGTAAAAGGTCACACACTCGAAATGCG
4. AGAATGAGGGTATTAAGATCAGGGAATTGCGGTC
5. TTACCAAGGTGAAAGGTCGTTTATGCACGCCTTG
6. TCTAGCAGGCCAGAGGGTCACTCCAGAGGTACGG

Result string:
1. 2.09
2. 4.56
3. 5.1
4. 0.923
5. 4.38
6. 0.586

Report PBM binding z-score for every entry below.
1. CCTTCTAGGTCAATGGTCAGCTAAAGCAGCTCGC
2. GCTTGTAGATCAAGGTTAACAAAGACTAAGCTAA

Result string:
1. 6.6
2. 1.61

* * *

Kindly supply the reported PBM binding z-score values for the records listed here.
System: PXR:RXRa (NR concentration 270 nM, RXRa partner concentration 90 nM)
Procedure summary: PBM binding z-score (relative to random genomic background probes); higher = stronger binding; sequences stand for … in GC…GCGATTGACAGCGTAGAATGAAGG
One number for each entry.

INSERT INTO assay_data (sequence_code, test_system, measured_value) VALUES
  ('CCTGCTAGGTCATGGTCTGCTAATCTACAGTATG', 'PXR:RXRa (NR concentration 270 nM, RXRa partner concentration 90 nM)', 1.33);

Report PBM binding z-score for every entry below.
1. TCATATAGGTAAAGGTGCAAGTCGAACGATATGA
2. CGTCCAAGGTCAGAGAGGCCAGTGAATGCCGAGT
3. AGTCAAAGTTCAGGACGAGGTAACGCAAAGCACG
4. TCTTGTAGATCAACAGGAGGTTAAGAAAGATCGA
5. AATACAGGGTCACCAGGCCAGAGTAGGTACGAAT
6. ACAGACAGGTGATGAAGGTAAATCAGGCTATCAT

Result string:
1: 0.241; 2: 2.83; 3: 2.72; 4: 0.753; 5: 4.02; 6: -0.214

Report PBM binding z-score for every entry below.
1. CCTTACGGGTCACTGACCGGTTATAGCATTTGGA
2. CCTAGTTTGTCAGGAGGTCACACACCGGATATGA
3. CCTCGGAGGAAAACAGGAGGTCAGAGCTGCCAGA
4. ACTACAGGGTCATCGTAGGCCAGAGTACGCACAG
5. ATATGTAGGTTACATCCGGGTAATTCAGGCTATG
6. TCTGTTAGTTGATTAGGGCAACCGAAACAGCGGA

Result string:
1: 2.93; 2: 4.63; 3: 1.5; 4: 4.76; 5: 0.541; 6: 0.57

* * *

Kindly supply the reported PBM binding z-score values for the records listed here.
System: LXRb:RXRa (NR concentration 270 nM, RXRa partner concentration 90 nM)
Procedure summary: PBM binding z-score (relative to random genomic background probes); higher = stronger binding; sequences stand for … in GC…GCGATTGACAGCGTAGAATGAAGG
Give bare numbers.

Worked cases, PBM binding z-score given:
INSERT INTO assay_data (sequence_code, test_system, observation_type, measured_value) VALUES
  ('GCATATAGGTAATACAAGGTGAAACTCCGATTGT', 'LXRb:RXRa (NR concentration 270 nM, RXRa partner concentration 90 nM)', 'PBM binding z-score', 0.988),
  ('CTCGAAAGGTCGTGATCAGGTGAGTATACCAAAC', 'LXRb:RXRa (NR concentration 270 nM, RXRa partner concentration 90 nM)', 'PBM binding z-score', 3.24),
  ('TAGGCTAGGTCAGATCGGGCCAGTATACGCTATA', 'LXRb:RXRa (NR concentration 270 nM, RXRa partner concentration 90 nM)', 'PBM binding z-score', 0.688);

Report PBM binding z-score for every entry below.
1. GCGACTGGGGCATCAGCAGGGTACCATAACTTAA
2. GCTAGCAGGCCATTTGGGTCACTCACTGACGGGC
3. CTCGAAAGGTCGGTTGAGGTGAGCATACGGATAA
4. ATCTCTGGGTAAAGATAGTTCAGTGAATGCAAAT
5. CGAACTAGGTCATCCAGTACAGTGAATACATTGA
6. ATCGAAAGGTCGTGAGGTGGGTATACAGAAAGGC
7. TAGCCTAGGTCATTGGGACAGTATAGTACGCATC
8. CGTCCAAGGTCAATGCTACGTCAGTGAAAGCATT

Result string:
1: 0.192; 2: -0.212; 3: 1.37; 4: 0.738; 5: 2.59; 6: 3.28; 7: 2.45; 8: 3.37

* * *

Kindly supply the reported PBM binding z-score values for the records listed here.
Tested on: LXRa homodimer (NR concentration 270 nM)
Procedure summary: PBM binding z-score (relative to random genomic background probes); higher = stronger binding; sequences stand for … in GC…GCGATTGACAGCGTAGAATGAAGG
Give bare numbers.

Worked cases, PBM binding z-score given:
INSERT INTO assay_data (sequence_code, measured_value) VALUES
  ('GCATATAGGTAATACAAGGCGAAAGTCCGATTGT', 0.175),
  ('CCGACTGGGGCAAGGTTACCAGAACGCACAGCCA', -0.288),
  ('AGTCAAAGTTCAGGACGGGGTAACGTAAAGCACG', 1.34),
  ('CCGAGTATGTTATGGGGCATTCAGGCAACGGTGA', -0.0828),
  ('CTACCAAGGTGAACAGGGTCGTTGATTACTATTC', -0.0558);

Report PBM binding z-score for every entry below.
1. AATACAGGGCCATCGTAGGCCAGAGTACGCACAG
2. GCATATAGGAAATACAAGGTGAAAGTCCGATTGT
3. GCTAGCAGGCCATTCGGGTCACTCAATGACGGGC
4. CAAACTAGGTCAAGATCAAAGTCGGTTTGTGCCA
5. CCTACTGGGCCAAAAAGGTCGTTGATGCCGATAA
6. TCTAGCAGGCCAGAGGGTCTCTCAAGAGGTACGG
7. CATACAGGGTCAGCTAGGTCAGAGTAGGGACGGC
8. GCCGCTAGGTCAACTGATGGTCAGCTAAAGCTCG

Result string:
1. -0.132
2. -0.095
3. -0.377
4. 0.143
5. 0.0143
6. -0.763
7. 0.985
8. 0.212

The measured values listed here are drawn from the supplement of paper PMC6555819.
